Study system: recombinant human DPP8 (Homo sapiens, UniProt Q6V1X1)
Construct: purchased PBS Bioscience
Sequence (Q6V1X1 whole entry): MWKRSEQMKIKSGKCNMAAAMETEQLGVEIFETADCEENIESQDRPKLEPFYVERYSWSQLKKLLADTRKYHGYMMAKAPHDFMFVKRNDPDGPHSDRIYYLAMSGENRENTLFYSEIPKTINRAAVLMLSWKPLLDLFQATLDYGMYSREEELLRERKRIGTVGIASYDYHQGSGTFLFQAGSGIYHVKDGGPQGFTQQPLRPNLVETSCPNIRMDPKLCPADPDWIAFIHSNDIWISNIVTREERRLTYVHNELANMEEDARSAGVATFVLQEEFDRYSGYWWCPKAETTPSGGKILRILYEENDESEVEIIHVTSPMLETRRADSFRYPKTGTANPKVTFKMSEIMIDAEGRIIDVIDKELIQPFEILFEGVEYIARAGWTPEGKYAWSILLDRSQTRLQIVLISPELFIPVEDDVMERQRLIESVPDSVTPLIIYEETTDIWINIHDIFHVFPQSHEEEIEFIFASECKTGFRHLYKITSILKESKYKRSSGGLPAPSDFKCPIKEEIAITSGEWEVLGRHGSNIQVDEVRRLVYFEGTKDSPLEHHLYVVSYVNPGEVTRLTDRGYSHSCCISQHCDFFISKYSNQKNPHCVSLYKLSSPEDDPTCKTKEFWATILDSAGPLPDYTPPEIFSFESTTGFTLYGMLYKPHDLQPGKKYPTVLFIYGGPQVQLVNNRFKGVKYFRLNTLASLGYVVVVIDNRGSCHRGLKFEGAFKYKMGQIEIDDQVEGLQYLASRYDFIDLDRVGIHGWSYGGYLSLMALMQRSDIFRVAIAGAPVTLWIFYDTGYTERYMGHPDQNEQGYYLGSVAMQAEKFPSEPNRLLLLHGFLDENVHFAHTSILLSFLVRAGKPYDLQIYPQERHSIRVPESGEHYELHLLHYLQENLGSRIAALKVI
Protocol details: DPP8 inhibition, fluorogenic substrate Z-Ala-Pro-AMC
Format: biochemical
Assay context: recombinant human DPP8
pIC50: −log10 of the molar value.
Mark rule met for reported pIC50 of 6 or greater; mark rule not met for anything smaller.

q: Given `N#C[C@@H]1C[C@H](F)CN1C(=O)CN1CC[C@H](Nc2cc(C(F)(F)F)cc3ncccc23)C1` , state whether its pIC50 is at least 6.
a: rule not met

q: And the next one, `N#C[C@@H]1CCCN1C(=O)CN1CCC(Nc2ccc(C(=O)Nc3ccncc3)c3ncccc23)CC1` ?
a: rule met

q: Thanks! And `Cc1cccc2c(OC3CCN(CC(=O)N4C[C@@H](F)C[C@H]4C#N)CC3)ccnc12` ?
a: rule not met

q: Please give the result for `N#C[C@@H]1C[C@H](F)CN1C(=O)CN1CC[C@@H](Nc2cccc3ncc(F)cc23)C1` too.
a: rule not met

q: Okay, and `N#C[C@@H]1C[C@H](F)CN1C(=O)CN1CCC(Nc2ccc(OC(F)(F)F)c3ncccc23)CC1` ?
a: rule not met

q: Also, `N#C[C@@H]1CCCN1C(=O)CN1CC[C@H](Nc2ccnc3c(C(F)(F)F)cccc23)C1` please.
a: rule not met
